# credit: patent US20260317324A1

target: BRAF D594G (Homo sapiens, UniProt P15056, D594G); construct: Horizon Discovery (HCT-116 BRAF−/− cells); host or cells: HCT-116 BRAF−/− cells, clone 63, lentiviral transduction; assay: BRAF HiBiT degradation assay, C-terminal HiBiT-tagged BRAF D594G overexpressed in HCT-116 BRAF−/− cells (clone 63), Nano-Glo HiBiT Lytic assay; type: cell-based; details: BRAF D594G (Class 3), HCT-116 BRAF−/− cells; observed Dmax relative to DMSO control
Sequence (P15056 whole entry D594G): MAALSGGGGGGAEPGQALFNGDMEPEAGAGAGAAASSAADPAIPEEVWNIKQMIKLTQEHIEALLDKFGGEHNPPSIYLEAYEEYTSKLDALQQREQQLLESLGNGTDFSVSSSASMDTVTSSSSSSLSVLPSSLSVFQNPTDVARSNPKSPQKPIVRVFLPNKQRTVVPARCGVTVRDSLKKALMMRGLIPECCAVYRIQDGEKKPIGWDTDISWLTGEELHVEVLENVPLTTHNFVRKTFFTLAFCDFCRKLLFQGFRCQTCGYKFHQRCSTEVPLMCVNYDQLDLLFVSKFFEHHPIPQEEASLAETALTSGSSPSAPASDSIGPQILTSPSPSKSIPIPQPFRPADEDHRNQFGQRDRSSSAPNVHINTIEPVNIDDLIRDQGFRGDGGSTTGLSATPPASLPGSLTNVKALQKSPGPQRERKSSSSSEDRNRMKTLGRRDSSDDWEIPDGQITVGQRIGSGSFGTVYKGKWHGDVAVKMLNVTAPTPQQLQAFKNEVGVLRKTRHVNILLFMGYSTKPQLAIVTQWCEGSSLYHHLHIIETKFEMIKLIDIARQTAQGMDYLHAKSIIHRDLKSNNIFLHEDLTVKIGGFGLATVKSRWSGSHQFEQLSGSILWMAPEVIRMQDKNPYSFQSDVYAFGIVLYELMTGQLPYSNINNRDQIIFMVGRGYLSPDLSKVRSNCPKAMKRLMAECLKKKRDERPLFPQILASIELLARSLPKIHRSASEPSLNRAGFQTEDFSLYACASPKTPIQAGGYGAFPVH
For each record, write down the corresponding Dmax.

Query block: Using the record for CCCS(=O)(=O)Nc1cccc(-c2nc(C3CCC4(CC3)CCN(CC3CCN(c5ccc6c(c5)CN(C5CCC(=O)NC5=O)C6=O)CC3)CC4)sc2-c2ccnc(N)n2)c1F (racemic) [Compound 258] , report its Dmax.
Result block: < 30%

Query block: Tell me the measured Dmax of O=C1CC[C@H](c2ccc(N3CCC(CN4CCN(c5ccc(-n6cc(-c7cc(Cl)cc(NS(=O)(=O)N8CCCC8)c7F)c(-c7ccncc7)n6)nc5)CC4)CC3)nc2)C(=O)N1 [Compound 290] , please.
Result block: > 70%

Query block: Param item = C[C@@H]1CN(c2ccc(-n3cc(-c4cc(Cl)cc(NS(=O)(=O)N5CC[C@@H](F)C5)c4F)c(-c4ccncc4)n3)cc2)CCN1CC1CCN(c2ccc(N3CCC(=O)NC3=O)cc2)CC1 [Compound 315] ; retrieve measured Dmax.
Result block: 30 to 70%
